# targetEntity: Pin1 (Homo sapiens, UniProt Q13526)
# Sequence (Q13526 whole entry): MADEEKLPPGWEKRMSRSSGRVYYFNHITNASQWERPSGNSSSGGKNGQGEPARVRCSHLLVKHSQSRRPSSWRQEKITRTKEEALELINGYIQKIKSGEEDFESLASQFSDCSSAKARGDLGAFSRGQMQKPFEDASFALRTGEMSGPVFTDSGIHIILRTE
# runDescription: confirmatory Pin1 fluorescence polarization competition assay (Alexa488 reconfirmed)
# settings: read-out: Alexa488 Reconfirmed Efficacy
quantity: Emax (%)

- compound: "COc1ccc(S(=O)(=O)N2CCN(C(=O)c3cc4c(s3)CCC4)CC2)cc1 [Compound 27]"
  targetEntity: "Pin1 (Homo sapiens, UniProt Q13526)"
  Emax [%]: 112
- compound: "O=C(O)C1Nc2c(C(F)(F)F)ccc(Cl)c2C2C=CCC12 (centres unmarked) [Compound 8]"
  targetEntity: "Pin1 (Homo sapiens, UniProt Q13526)"
  Emax [%]: 103
- compound: "O=C(c1ccc(=O)oc1)N1CCOCC1 [Compound 20]"
  targetEntity: "Pin1 (Homo sapiens, UniProt Q13526)"
  Emax [%]: 77
- compound: "O=C(O)CCCNC(=O)/C=C/c1ccco1 [Compound 19]"
  targetEntity: "Pin1 (Homo sapiens, UniProt Q13526)"
  Emax [%]: 73
- compound: "O=S(=O)(O)c1ccc(O)c2cc(Nc3ccccc3)ccc12 [Compound 13]"
  targetEntity: "Pin1 (Homo sapiens, UniProt Q13526)"
  Emax [%]: 89

====

# targetEntity: Pin1 (Homo sapiens, UniProt Q13526)
# runDescription: confirmatory Pin1 fluorescence polarization competition assay (Alexa488 reconfirmed);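 further: Pin1 competition with a HiFluor488-labelled peptide probe, read as fluorescence polarization after 10 min at room temperature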
pIC50: −log10 of the molar value.
quantity: pIC50

Worked cases, pIC50 given:
- compound: "CCn1nc(-c2ccccc2C)nc2c(=O)n(C)c(=O)nc1-2"
  pIC50: 6.00
- compound: "O=C(O)C1Nc2c(O)cc(Cl)c([N+](=O)[O-])c2C2C=CCC12 (centres unmarked)"
  pIC50: 5.70
- compound: "Cc1ccc(C)n1-c1cccc(C(=O)O)c1"
  pIC50: 5.70

A. Cc1c(C(=O)c2no[n+]([O-])c2C(=O)c2cnn(C)c2C)cnn1C
B. COC(=O)COc1ccc(C2Nc3c(Cl)ccc(C(=O)O)c3C3C=CCC32)cc1 (centres unmarked)
Select the item with the higher value of pIC50 from the options A and B listed. Response format: the label of the selected entry.
A
(A: 6.47, B: 4.57)

====

# targetEntity: Pin1 (Homo sapiens, UniProt Q13526)
# runDescription: Pin1 fluorescence polarization competition assay, primary qHTS (HiFluor-488 / Alexa488 probe)
# settings: read-out: Average HTS Efficacy
quantity: Emax (%)

- molecule: "O=C(O)C1Nc2ccc(Br)cc2C2C=CCC12 (centres unmarked)"
  targetEntity: "Pin1 (Homo sapiens, UniProt Q13526)"
  readoutUnit: "%"
  Emax: 72

P. O=C(O)c1cc(Cl)c2c(c1)[C@@H]1C=CC[C@@H]1[C@H](c1ccc(S(=O)(=O)N3CCOCC3)cc1)N2
Q. Cc1ccc(NC(=O)CN(C)C(=O)c2cccc(-n3cccc3)c2)cc1
Select the item with the higher value of Emax from the options P and Q listed. Let me know the label of the one you choose.
P
(P: 77%, Q: 47%)

I. COc1ccc(C(=O)c2no[n+]([O-])c2C(=O)c2ccc(OC)cc2)cc1
II. Cc1ccc(N(Cc2cc(=O)[nH]c3ccccc23)C(=O)CCl)cc1
Task for the reader: decide whether I or II has the larger Emax. State the label of the item chosen.
II

====

# targetEntity: Pin1 (Homo sapiens, UniProt Q13526)
# runDescription: Pin1 fluorescence polarization competition assay, primary qHTS (HiFluor-488 / Alexa488 probe)
# settings: Alexa488 Primary Potency, primary qHTS
quantity: IC50 (µM)

Here's what some known entries look like.
- compound: "Cc1ccc(C)n1-c1sccc1C(=O)O"
  IC50, µM: 68
- compound: "O=C(O)C1Nc2c(O)cc(Cl)c([N+](=O)[O-])c2C2C=CCC12 (stereo not drawn)"
  IC50, µM: 7
- compound: "COc1ccc(NS(=O)(=O)c2ccc3c(c2)[C@H]2C=CC[C@H]2[C@@H](c2ccc(C(=O)O)cc2)N3)cc1"
  IC50, µM: 25
- compound: "CCCCOc1ccc(C(=O)N/C(=C/c2cccc([N+](=O)[O-])c2)C(=O)O)cc1"
  IC50, µM: 11
- compound: "COc1ccc(NC(=O)CN(C)C(O)c2cc(-c3ccco3)nc3ccccc23)cc1 (stereo not drawn)"
  IC50, µM: 14

1. O=S(=O)(O)c1ccc(O)c2cc(Nc3ccccc3)ccc12
2. COc1cc(/C=C2\SC(=O)N(c3ccc(Cl)cc3)C2=O)cc([N+](=O)[O-])c1O
3. CCn1nc(-c2ccccc2C)nc2c(=O)n(C)c(=O)nc1-2
4. Cn1nc(-c2ccncc2)nc2c(=O)n(C)c(=O)nc1-2
Exam item: list the entries in increasing order of IC50. // rank by listing labels in the order requested
3, 1, 2, 4

====

# targetEntity: Pin1 (Homo sapiens, UniProt Q13526)
# runDescription: Pin1 fluorescence polarization competition assay, primary qHTS (HiFluor-488 / Alexa488 probe)
# settings: read-out: Alexa488 Primary Efficacy
quantity: Emax (%)

Here is how some compounds turned out for Emax.
- compound: "C=CCOc1ccc(C(c2c(C(=O)O)[nH]c3ccccc23)c2c(C(=O)O)[nH]c3ccccc23)cc1"
  targetEntity: "Pin1 (Homo sapiens, UniProt Q13526)"
  readoutUnit: "%"
  Emax: 82
- compound: "Cc1cc(C(=O)NCc2ccc(C(=O)O)o2)c(C)o1"
  targetEntity: "Pin1 (Homo sapiens, UniProt Q13526)"
  readoutUnit: "%"
  Emax: 20
- compound: "COc1ccccc1Nc1ccc2c(O)cc(S(=O)(=O)O)cc2c1"
  targetEntity: "Pin1 (Homo sapiens, UniProt Q13526)"
  readoutUnit: "%"
  Emax: 71
- compound: "COc1cc(/C=C2\\SC(=O)N(c3ccc(Cl)cc3)C2=O)cc([N+](=O)[O-])c1O"
  targetEntity: "Pin1 (Homo sapiens, UniProt Q13526)"
  readoutUnit: "%"
  Emax: 103
- compound: "O=S(=O)(Nc1nc(-c2sccc2Cl)cs1)c1cc(Cl)ccc1Cl"
  targetEntity: "Pin1 (Homo sapiens, UniProt Q13526)"
  readoutUnit: "%"
  Emax: 76

1. CCCCOc1ccc(C(=O)N/C(=C/c2cccc([N+](=O)[O-])c2)C(=O)O)cc1
2. O=C(NC(Cc1ccccc1)C(=O)O)/C(=C\c1ccco1)NC(=O)c1ccccc1 (stereo not drawn)
3. O=C(O)C1Nc2c(C(F)(F)F)ccc(Cl)c2C2C=CCC12 (stereo not drawn)
Order by Emax, ascending. Put the labels in the requested order and write them down.
2, 3, 1
(2: 26%, 3: 67%, 1: 101%)

====

# targetEntity: Pin1 (Homo sapiens, UniProt Q13526)
# runDescription: Pin1 fluorescence polarization competition assay, primary qHTS (HiFluor-488 / Alexa488 probe);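 further: Pin1 protein with fluorescent peptide probe, compound displacement read by fluorescence polarization, percent inhibition derived from corrected polarization values, concentration-response curves in 1536-well format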
# settings: Average HTS Potency, average over Alexa488 primary, Alexa488 reconfirmed and Tamra secondary assays
pIC50: −log10 of the molar value.
quantity: pIC50

- compound: "O=C(c1ccc(=O)oc1)N1CCOCC1"
  quantity: "pIC50"
  number: 5.15
- compound: "O=C(O)CCCNC(=O)/C=C/c1ccco1"
  quantity: "pIC50"
  number: 4.82
- compound: "Cc1ccc(NC(=O)CN(C)C(=O)c2cccc(-n3cccc3)c2)cc1"
  quantity: "pIC50"
  number: 4.47
- compound: "CCCCCC(=O)Nc1cc(S(=O)(=O)O)cc2cc(S(=O)(=O)O)cc(O)c12"
  quantity: "pIC50"
  number: 4.57

1. O=S(=O)(O)c1cc(O)c2cc(Nc3ccccc3)ccc2c1
2. NS(=O)(=O)c1cc(C(=O)NC2CCSc3ccccc32)ccc1Cl (stereo not drawn)
3. Cc1cc(C(=O)NCc2ccc(C(=O)O)o2)c(C)o1
4. CC(C)COc1ccc(C(=O)N/C(=C\c2cccc([N+](=O)[O-])c2)C(=O)O)cc1
5. Cc1c(C(=O)c2no[n+]([O-])c2C(=O)c2cnn(C)c2C)cnn1C
Please give the order of these compounds when sorted by pIC50, largest value leading. # format: label list in the order the request specifies
5, 2, 1, 3, 4

====

# targetEntity: Pin1 (Homo sapiens)
# runDescription: Pin1 fluorescence polarization competition assay with Tamra-probe (secondary)
pIC50: −log10 of the molar value.
quantity: pIC50

1. COc1cc(C(c2c(C(=O)O)[nH]c3ccccc23)c2c(C(=O)O)[nH]c3ccccc23)ccc1OCc1ccccc1 [Compound 47]
2. O=C(O)C1Nc2c(Cl)cc(Cl)c(Cl)c2C2C=CCC12 (stereo not drawn) [Compound 5]
Field: lower pIC50 | Options: 1 / 2 Give the label of your selection.
1
(1: 4.68, 2: 5.70)

P. O=C(O)Cc1c[nH]c2cccc(O)c12 [Compound 23]
Q. Cc1ccc(C)n1-c1cccc(C(=O)O)c1 [Compound 17]
R. COc1ccc(S(=O)(=O)N2CCN(C(=O)c3cc4c(s3)CCC4)CC2)cc1 [Compound 27]
S. O=C(O)CCCNC(=O)/C=C/c1ccco1 [Compound 19]
Put the entries in order of pIC50, starting with the largest number. Form entry: labels listed in requested order.
Q, S, P, R

a. CC(C)COc1ccc(C(=O)N/C(=C\c2cccc([N+](=O)[O-])c2)C(=O)O)cc1 [Compound 37]
b. CCCCCC(=O)Nc1cc(S(=O)(=O)O)cc2cc(S(=O)(=O)O)cc(O)c12 [Compound 16]
c. COc1ccc(NC(=O)CN(C)C(O)c2cc(-c3ccco3)nc3ccccc23)cc1 (stereo not drawn) [Compound 39]
d. O=C(c1ccc(=O)oc1)N1CCOCC1 [Compound 20]
e. CCOc1cc(Br)cc(C(c2c(C(=O)O)[nH]c3ccccc23)c2c(C(=O)O)[nH]c3ccccc23)c1O [Compound 45]
// ranking: key=pIC50, reverse=True # answer = labels listed in requested order
b, d, a, c, e

1. O=C(NC(Cc1ccccc1)C(=O)O)/C(=C\c1ccco1)NC(=O)c1ccccc1 (stereo not drawn) [Compound 35]
2. COC(=O)COc1ccc(C2Nc3c(Cl)ccc(C(=O)O)c3C3C=CCC32)cc1 (stereo not drawn) [Compound 42]
Sorting ascending by pIC50, which comes first: 1 or 2 ? API: response body contains the label of the selected item.
2
